Every entry's value here was drawn from ChEMBL document CHEMBL1926544.

Form field: pIC50 (one value per entry).
# Tested on: Human betaherpesvirus 5
# Method Description: Antiviral activity against HCMV Towne infected in HFF cells incubated for 10 days by plaque reduction assay
# Format: functional, organism-based
# Condition Summary: Human betaherpesvirus 5, Towne, HFF, 240 h
pIC50: −log10 of the molar value.

Compound: CC(C)(C)NC(=O)[C@H](N)Cc1ccc(OP2(=O)CO[C@@H](Cn3ccc(N)nc3=O)CO2)cc1 (mixture of isomers)
Value Comparator: >
pIC50: 7.00
--
Compound: COC(=O)[C@H](Cc1ccc(OP2(=O)CO[C@@H](Cn3ccc(N)nc3=O)CO2)cc1)NC(=O)[C@@H](N)C(C)C (mixture of isomers)
Value Comparator: >
pIC50: 7.00
--
Compound: COC(=O)[C@@H](N)Cc1ccc(OP2(=O)CO[C@@H](Cn3cnc4c(N)ncnc43)CO2)cc1 (mixture of isomers; form 1)
Value Comparator: =
pIC50: 6.35
--
Compound: Nc1ncnc2c1ncn2C[C@@H](CO)OCP(=O)(O)O
Value Comparator: =
pIC50: 6.39
--
Compound: Nc1nc2c(ncn2COC(CO)CO)c(=O)[nH]1 [GANCICLOVIR]
Value Comparator: =
pIC50: 6.85
--
Compound: COC(=O)[C@H](Cc1ccc(OP2(=O)CO[C@@H](Cn3cnc4c(N)ncnc43)CO2)cc1)NC(=O)[C@@H](N)C(C)C (mixture of isomers)
Value Comparator: =
pIC50: 6.52
--
Compound: CC(C)OC(=O)[C@@H](N)Cc1ccc(OP2(=O)CO[C@@H](Cn3ccc(N)nc3=O)CO2)cc1 (mixture of isomers; form 1)
Value Comparator: =
pIC50: 6.92
--
Compound: Nc1ncnc2c1ncn2C[C@H]1COP(=O)(O)CO1
Value Comparator: =
pIC50: 5.89
--
Compound: COC(=O)[C@@H](N)Cc1ccc(OP2(=O)CO[C@@H](Cn3ccc(N)nc3=O)CO2)cc1 (mixture of isomers)
Value Comparator: =
pIC50: 6.64
--
Compound: CC(C)CNC(=O)[C@@H](N)Cc1ccc(OP(=O)(O)CO[C@H](CO)Cn2cnc3c(N)ncnc32)cc1
Value Comparator: =
pIC50: 6.54
--
Compound: Nc1ccn(C[C@@H](CO)OCP(=O)(O)O)c(=O)n1 [CIDOFOVIR]
Value Comparator: =
pIC50: 6.55
--
Compound: COC(=O)[C@H](N)Cc1ccc(OP2(=O)CO[C@@H](Cn3ccc(N)nc3=O)CO2)cc1 (mixture of isomers)
Value Comparator: =
pIC50: 6.70

----------
# Method Description: Half life in phosphate buffer at pH 7.4 at 37 degC assessed as half life by LC/MS analysis
# Type: physicochemical
Listed here are molecules together with their documented log10 of half-life.
Measurement Label: log10 of half-life (log10 of the value in h)

Smiles String: COC(=O)[C@H](N)Cc1ccc(O[P@]2(=O)CO[C@@H](Cn3ccc(N)nc3=O)CO2)cc1
log10 of half-life: -0.46
--
Smiles String: CC(C)CNC(=O)[C@@H](N)Cc1ccc(O[P@@]2(=O)CO[C@@H](Cn3cnc4c(N)ncnc43)CO2)cc1
log10 of half-life: 0.59
--
Smiles String: CC(C)CNC(=O)[C@@H](N)Cc1ccc(O[P@]2(=O)CO[C@@H](Cn3cnc4c(N)ncnc43)CO2)cc1
log10 of half-life: -0.36
--
Smiles String: CC(C)OC(=O)[C@@H](N)Cc1ccc(O[P@@]2(=O)CO[C@@H](Cn3ccc(N)nc3=O)CO2)cc1
log10 of half-life: 0.60
--
Smiles String: CC(C)OC(=O)[C@@H](N)Cc1ccc(O[P@]2(=O)CO[C@@H](Cn3ccc(N)nc3=O)CO2)cc1
log10 of half-life: -0.44
--
Smiles String: COC(=O)[C@H](Cc1ccc(O[P@]2(=O)CO[C@@H](Cn3cnc4c(N)ncnc43)CO2)cc1)NC(=O)[C@@H](N)C(C)C
log10 of half-life: -0.60
--
Smiles String: COC(=O)[C@@H](N)Cc1ccc(O[P@]2(=O)CO[C@@H](Cn3ccc(N)nc3=O)CO2)cc1
log10 of half-life: -0.50
--
Smiles String: COC(=O)[C@@H](N)Cc1ccc(O[P@@]2(=O)CO[C@@H](Cn3ccc(N)nc3=O)CO2)cc1
log10 of half-life: 0.31
--
Smiles String: CC(C)(C)NC(=O)[C@H](N)Cc1ccc(O[P@@]2(=O)CO[C@@H](Cn3ccc(N)nc3=O)CO2)cc1
log10 of half-life: 1.02
--
Smiles String: CC(C)(C)NC(=O)[C@H](N)Cc1ccc(O[P@]2(=O)CO[C@@H](Cn3ccc(N)nc3=O)CO2)cc1
log10 of half-life: 0.00
--
Smiles String: COC(=O)[C@H](Cc1ccc(O[P@@]2(=O)CO[C@@H](Cn3cnc4c(N)ncnc43)CO2)cc1)NC(=O)[C@@H](N)C(C)C
log10 of half-life: 0.04
--
Smiles String: COC(=O)[C@H](N)Cc1ccc(O[P@@]2(=O)CO[C@@H](Cn3ccc(N)nc3=O)CO2)cc1
log10 of half-life: 0.32

----------
Item-by-item account of half-life
# Method Description: Half life in phosphate buffer at pH 6.5 at 37 degC by LC/MS analysis
# Type: physicochemical

Smiles String: CC(C)OC(=O)[C@@H](N)Cc1ccc(O[P@@]2(=O)CO[C@@H](Cn3ccc(N)nc3=O)CO2)cc1
half-life [min]: 770

Smiles String: CC(C)(C)NC(=O)[C@H](N)Cc1ccc(O[P@]2(=O)CO[C@@H](Cn3ccc(N)nc3=O)CO2)cc1
half-life [min]: 210

Smiles String: COC(=O)[C@@H](N)Cc1ccc(O[P@@]2(=O)CO[C@@H](Cn3cnc4c(N)ncnc43)CO2)cc1
half-life [min]: 330

Smiles String: CC(C)CNC(=O)[C@@H](N)Cc1ccc(O[P@]2(=O)CO[C@@H](Cn3cnc4c(N)ncnc43)CO2)cc1
half-life [min]: 122

Smiles String: COC(=O)[C@H](Cc1ccc(O[P@@]2(=O)CO[C@@H](Cn3cnc4c(N)ncnc43)CO2)cc1)NC(=O)[C@@H](N)C(C)C
half-life [min]: 346

Smiles String: CC(C)OC(=O)[C@@H](N)Cc1ccc(O[P@]2(=O)CO[C@@H](Cn3ccc(N)nc3=O)CO2)cc1
half-life [min]: 121

----------
# Tested on: Vaccinia virus
# Method Description: Antiviral activity against Vaccinia virus Copenhagen infected in HFF cells incubated for 3 days by plaque reduction assay
# Format: functional, organism-based, Orthopoxvirus vaccinia
# Condition Summary: hff
Y if IC50 is below 2 µM. N if not; exact matches included in N.

Molecule: CC(C)CNC(=O)[C@@H](N)Cc1ccc(OP2(=O)CO[C@@H](Cn3cnc4c(N)ncnc43)CO2)cc1.Cl (mixture of isomers; form 2)
Qualitative Label: Y
//
Molecule: CC(C)CNC(=O)[C@@H](N)Cc1ccc(OP2(=O)CO[C@@H](Cn3cnc4c(N)ncnc43)CO2)cc1 (mixture of isomers; form 3)
Qualitative Label: Y
//
Molecule: CC(C)CNC(=O)[C@@H](N)Cc1ccc(OP2(=O)CO[C@@H](Cn3cnc4c(N)ncnc43)CO2)cc1 (mixture of isomers; form 1)
Qualitative Label: N
//
Molecule: CC(C)OC(=O)[C@@H](N)Cc1ccc(OP2(=O)CO[C@@H](Cn3ccc(N)nc3=O)CO2)cc1 (mixture of isomers; form 2)
Qualitative Label: N
//
Molecule: CC(C)OC(=O)[C@@H](N)Cc1ccc(OP2(=O)CO[C@@H](Cn3ccc(N)nc3=O)CO2)cc1 (mixture of isomers; form 1)
Qualitative Label: N

----------
# Method Description: Half life in Sprague-Dawley rat intestinal homogenate at pH 6.5 by LC/MS analysis
# Assay type: ADME, tissue-based, Intestine
Entries and their half-life values follow.

Smiles String: COC(=O)[C@@H](N)Cc1ccc(O[P@]2(=O)CO[C@@H](Cn3cnc4c(N)ncnc43)CO2)cc1
half-life: < 30 min

Smiles String: COC(=O)[C@@H](N)Cc1ccc(O[P@@]2(=O)CO[C@@H](Cn3cnc4c(N)ncnc43)CO2)cc1
half-life: < 30 min

Smiles String: COC(=O)[C@@H](N)Cc1ccc(O[P@]2(=O)CO[C@@H](Cn3ccc(N)nc3=O)CO2)cc1
half-life: < 30 min

Smiles String: CC(C)OC(=O)[C@@H](N)Cc1ccc(O[P@@]2(=O)CO[C@@H](Cn3ccc(N)nc3=O)CO2)cc1
half-life: < 30 min

Smiles String: COC(=O)[C@H](Cc1ccc(O[P@]2(=O)CO[C@@H](Cn3cnc4c(N)ncnc43)CO2)cc1)NC(=O)[C@@H](N)C(C)C
half-life: < 30 min

Smiles String: COC(=O)[C@H](Cc1ccc(O[P@@]2(=O)CO[C@@H](Cn3cnc4c(N)ncnc43)CO2)cc1)NC(=O)[C@@H](N)C(C)C
half-life: < 30 min

Smiles String: CC(C)OC(=O)[C@@H](N)Cc1ccc(O[P@]2(=O)CO[C@@H](Cn3ccc(N)nc3=O)CO2)cc1
half-life: < 30 min

Smiles String: COC(=O)[C@@H](N)Cc1ccc(O[P@@]2(=O)CO[C@@H](Cn3ccc(N)nc3=O)CO2)cc1
half-life: < 30 min
